Reported OD450 values follow for various binders
# system-name: Human VEGFA165 (human, UniProt P15692-4 27-191)
# Sequence (P15692 other isoform, or with tags, fused parts or gaps limits assumed): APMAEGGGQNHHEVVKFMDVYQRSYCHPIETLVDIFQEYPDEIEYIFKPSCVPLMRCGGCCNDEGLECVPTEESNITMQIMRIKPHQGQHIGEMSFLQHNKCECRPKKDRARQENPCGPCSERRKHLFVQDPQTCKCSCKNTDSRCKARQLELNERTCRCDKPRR
# protocol-description: phage ELISA, VEGFA coated 0.5 µg/mL, anti-M13(HRP)
Reply with just the number (in OD450).

Please review the entries below; each comes with its answer.
>>> test_value("V25 (VHH) VHH: QLQLVESGGGSVQPGGSLRLSCEVSGRTFTSYTMGWFRRAPGKEREFVVAISKGGYKYDSVSLEARFTISKDNTKNTVYLQMNSLKPEDTAVYYCAGTRAYGSSRLKLAKTYEYWGQGTQVTVSS")
1.29
>>> test_value("V8 (VHH) VHH: QLQLVESGGGSVQPGGSLRLSCEVSGRTFSSYTMGWFRQAPGKEREFVVAISKGGYKYNTVSLEARFTISKDNTKNTVYLQMNSLKPEDTAVYYCAGTRAYGSSRLKLAETYEYWGQGTQVTVSS")
0.924
>>> test_value("V22 (VHH) VHH: QLQLVESGGGSVQPGGSLRLSCEVSGRTFSSYTMGWFRQAPGKEREFVVAISKGGYKYDSVSLEARFTISKDNTKNTVYLQMNSLKPEDTAVYYCAATRAYGSSRLKLADTYEYWGQGTQVTVSS")
1.64

// returns reported OD450 for input V18 (VHH) VHH: QLQLVESGGGSVQPGGSLRLSCEVSGRTFSSYTMGWFRQAPGKEREFVVAISKGGYKYNSVSLEARFTISKDNTKNTVYLQMNSLKPEDTAVYYCAGTRAYGSSRLRLADTYEYWGQGTQVTVSS
2.94

// returns reported OD450 for input V19 (VHH) VHH: QLQLVESGGGSVQPGGSLRLSCEVSGRTFSSYTMGWFRQAPGKEREFVVAISKGGYKYNSVSLEARFTISKDNTKNTVYLQMNSLKPEDTAVYYCAATRAYGSSRLKLANTYEYWGQGTQVTVSS
2.47

// returns reported OD450 for input V6 (VHH) VHH: QLQLVESGGGSVQPGGSLRLSCEVSGRTFSSYTMGWFRQAPGKEREFVVAISKGGYKYDTVSLEARFTISKDNTKNTVYLQMNSLKPEDTAVYYCAGTRAYGSSRLKLADTYEYWGQGTQVTVSS
1.36
